# PROCEDURE DETAILS: in vitro
# APPLIED CONDITIONS: human, hela cells, % viability
A collection of compounds and their measured viability at 28.5 h, 10 µM
Only the number, expressed in %, is required.

The following compounds have reported results that may help.
- COMPOUND: "CCc1ccc(S(=O)(=O)Nc2cccnc2)cc1"
  viability at 28.5 h, 10 µM / %: 87.5
- COMPOUND: "CCCc1cnc(N2CCN(CC(=O)Nc3ccc(C(C)=O)cc3)CC2)nc1"
  viability at 28.5 h, 10 µM / %: 104
- COMPOUND: "O=C1CCC(=O)N1Cc1cccc(-c2ccnc(NS(=O)(=O)c3ccc(Cl)cc3)n2)c1"
  viability at 28.5 h, 10 µM / %: 86.3
- COMPOUND: "CN1CCN(CC(=O)Nc2ccc([N+](=O)[O-])cc2C(=O)c2ccccc2)CC1"
  viability at 28.5 h, 10 µM / %: 104

Prompt line: // viability at 28.5 h, 10 µM lookup, key: CS(=O)(=O)N(CC(=O)O)c1cccc2ccccc12
Response line: 101

Prompt line: One more compound: CC(=O)N1CCc2c([nH]c3c(C)cccc23)C12CCN(CCOc1ccccc1)C2 (centres unmarked)
Response line: 85.4

Prompt line: One more compound: O=C1CSC2(C(=O)Nc3ccccc32)N1c1ccc([N+](=O)[O-])cc1 (centres unmarked)
Response line: 93.5

Prompt line: One more compound: CCN(CC)C(=O)c1c(NC(=O)c2cccs2)sc2c1CCC2
Response line: 93

Prompt line: One more compound: Cc1ccnc(SCc2ccc(F)cc2Cl)n1
Response line: 87.4

Prompt line: One more compound: CONc1nc(NC(C)(C)C)nc(OCC#N)n1
Response line: 85.9

Prompt line: One more compound: Nc1nc2c(cc1C(=O)NCc1ccccc1)CN(C(=O)CCCc1ccc(F)cc1)CC2
Response line: 95.3
